measurement-label: melting point

cpd_smiles=Cc1nc2cccc(OCC(C)(C)C(=O)NC3CCC3)c2c(N)c1C(=O)O reported="183 to 187 °C"
cpd_smiles=CCNC(=O)C(C)(C)COc1cccc2nc(C)c(C(=O)O)c(N)c12 reported="168 to 170 °C"
cpd_smiles=Cc1nc2cccc(OCC(C)(C)NC(=O)C3CCOCC3)c2c(N)c1C(=O)O reported="170 to 173 °C"
cpd_smiles=Cc1nc2cccc(OCC(C)(C)NC(=O)CC3CCOCC3)c2c(N)c1C(=O)O reported="175 to 178 °C"
cpd_smiles=CCC(=O)N1CCC(COc2cccc3nc(C)c(C(=O)O)c(N)c23)CC1 reported="168 to 170 °C"
